B1: 26S proteasome non-ATPase regulatory subunit 4 homolog (Arabidopsis thaliana (Mouse-ear cress)), P55034 (parent)
chain: MVLEATMICIDNSEWMRNGDYSPSRLQAQTEAVNLLCGAKTQSNPENTVGILTMAGKGVRVLTTPTSDLGKILACMHGLDVGGEINLTAAIQIAQLALKHRQNKNQRQRIIVFAGSPIKYEKKALEIVGKRLKKNSVSLDIVNFGEDDDEEKPQKLEALLTAVNNNDGSHIVHVPSGANALSDVLLSTPVFTGDEGASGYVSAAAAAAAAGGDFDFGVDPNIDPELALALRVSMEEERARQEAAAKKAADEAGQKDKDGDTASASQETVARTTDKNAEPMDEDSALLDQAIAMSVGDVNMSEAADEDQDLALALQMSMSGEESSEATGAGNNLLGNQAFISSVLSSLPGVDPNDPAVKELLASLPDESKRTEEEESSSKKGEDEKK
partner: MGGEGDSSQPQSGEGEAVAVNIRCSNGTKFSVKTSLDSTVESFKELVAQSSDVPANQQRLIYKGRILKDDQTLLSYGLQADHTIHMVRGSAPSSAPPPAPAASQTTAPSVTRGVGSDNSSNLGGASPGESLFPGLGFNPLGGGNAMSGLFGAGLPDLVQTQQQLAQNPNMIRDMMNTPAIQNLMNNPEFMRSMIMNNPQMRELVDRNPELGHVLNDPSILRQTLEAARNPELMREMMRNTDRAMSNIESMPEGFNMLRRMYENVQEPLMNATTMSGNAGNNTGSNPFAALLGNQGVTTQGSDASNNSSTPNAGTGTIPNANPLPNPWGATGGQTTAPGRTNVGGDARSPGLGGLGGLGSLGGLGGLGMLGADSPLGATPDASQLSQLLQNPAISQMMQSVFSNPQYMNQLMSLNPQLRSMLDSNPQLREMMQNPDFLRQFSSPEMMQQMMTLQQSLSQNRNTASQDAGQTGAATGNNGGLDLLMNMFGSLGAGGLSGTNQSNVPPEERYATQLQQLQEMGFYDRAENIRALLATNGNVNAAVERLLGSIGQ

Variants of: B1
Conditions: with dsk2b_arath DSK2B
VALUE TYPE: effect of a mutation on the interaction

MUTATION NOTATION: L286N;L287N;Q289N;A290D;L310N;A311N;L312N;A313D;L314N
VALUE TYPE: effect of a mutation on the interaction
RECORDED MEASUREMENT: with no effect
--
MUTATION NOTATION: L286N;L287N;Q289N;A290D
VALUE TYPE: effect of a mutation on the interaction
RECORDED MEASUREMENT: with no effect
--
MUTATION NOTATION: L310N;A311N;L312N;A313D;L314N
VALUE TYPE: effect of a mutation on the interaction
RECORDED MEASUREMENT: with no effect
